Molecular target: T1, human VPAC2 receptor (human, UniProt P41587 24-438)
T1 construct: whole, on cells; CHO-S cell line stably expressing human VPAC2 (cAMP assays)
T1 sequence (looked up): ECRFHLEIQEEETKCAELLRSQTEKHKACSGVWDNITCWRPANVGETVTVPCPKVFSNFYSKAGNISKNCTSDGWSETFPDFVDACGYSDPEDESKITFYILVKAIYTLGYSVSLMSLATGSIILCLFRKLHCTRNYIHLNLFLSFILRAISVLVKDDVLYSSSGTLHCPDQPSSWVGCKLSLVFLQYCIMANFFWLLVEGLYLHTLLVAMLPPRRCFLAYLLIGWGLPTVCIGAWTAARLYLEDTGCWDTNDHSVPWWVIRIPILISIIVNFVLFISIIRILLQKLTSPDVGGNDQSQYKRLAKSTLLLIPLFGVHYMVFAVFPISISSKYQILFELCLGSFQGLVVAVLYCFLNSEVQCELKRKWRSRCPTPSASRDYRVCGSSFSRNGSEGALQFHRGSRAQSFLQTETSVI
Experiment: filter binding, VPAC2 cell membranes, displacement of 125I-VIP
pIC50: −log10 of the molar value.
Reported pIC50 values follow for various binders

binder	pIC50
HSDAVFTEQYTXLRXQVAAXXYLQSCXXGGPSSGAPPPC (C6-HSDAVFTEQY(OMe)TOrnLRAibQVAAAibOrnYLQSC(PEG20K)OrnOrnGGPSSGAPPPC(PEG20K)-NH2) [P503]	7.38
HSDAVFTEQYTXLRXQLAXXXYLQSIXCXGGPSSGAPPPS (C6-HSDAVFTEQY(OMe)TOrnLRAibQLAAbuAibOrnYLQSIOrnC(PEG40K)OrnGGPSSGAPPPS-NH2) [P539]	7.87
HSDAVFTEQYTXLRXQVAAXXYLQSIXXGGPSSGAPPPS (C6-HSDAVFTEQY(OMe)TOrnLRAibQVAAAibK(CO(CH2)2SPEG20K)YLQSIOrnOrnGGPSSGAPPPS-NH2) [P473]	6.59

Source of measurements: patent US20080234198A1
